- Test system: 777334-354-R2-J4-PDC tumor spheroids with HUVEC/MSC, viability
- Procedure Details: Anticancer human tumor 777334-354-R2-J4-PDC patient-derived pancreatic adenocarcinoma cell line growth inhibition [GQUAD]
- Run Conditions: second compound 1 µM; first compound 0.0316 µM; stronger effect = lower value
- From the text: DNA G-quadruplex Stabilizer Agents in Combinations in Complex Spheroids A high-throughput screen of multi-cell type tumor spheroids was designed to identify active combinations of DNA G-quadruplex stabilizer agents and targeted small molecules. […] Compounds. […] If the clinical Cmax for an agent had not been determined, the highest concentration tested was 10 microM. […]
Observable: viability, T/C (%)
Expressed in %, but write only the number.

Q: What measured viability, T/C goes with COc1ncnc(C2CC2)c1-c1ncc2cnn(Cc3ccc(-c4nc(C(F)(F)F)cn4C(C)C)cc3)c2n1 + CN(C)c1ccc(Nc2c3ccc(NC(=O)CCN4CCCC4)cc3nc3cc(NC(=O)CCN4CCCC4)ccc23)cc1 ?
Result: 96.2

Q: What about this compound? CC1COCCN1c1cc(C2(O)CC3CCC(C2)O3)c2cnn(-c3ccn[nH]3)c2n1 (stereo not given) + Cc1[nH]c2ccc(F)cc2c1-c1nc2c3cccnc3c3ncccc3c2[nH]1
Result: 66.8

Q: What about this compound? Nc1ccn(C2OC(CO)C(O)C2(F)F)c(=O)n1 (stereo not given) + CN(C)c1ccc(Nc2c3ccc(NC(=O)CCN4CCCC4)cc3nc3cc(NC(=O)CCN4CCCC4)ccc23)cc1
Result: 76.2

Q: What about this compound? Cn1ncnc1[C@H]1c2n[nH]c(=O)c3cc(F)cc(c23)N[C@@H]1c1ccc(F)cc1 + CN(C)c1ccc(Nc2c3ccc(NC(=O)CCN4CCCC4)cc3nc3cc(NC(=O)CCN4CCCC4)ccc23)cc1
Result: 85.5

Q: What about this compound? CC(=O)O[C@H]1C(=O)[C@@]2(C)[C@H]([C@H](OC(=O)c3ccccc3)[C@]3(O)C[C@H](OC(=O)[C@H](O)[C@@H](NC(=O)c4ccccc4)c4ccccc4)C(C)=C1C3(C)C)[C@]1(OC(C)=O)CO[C@@H]1C[C@@H]2O + Cc1cnc(CNC(=O)c2c(=O)c3ccc(N4CCCN(C)CC4)nc3n3c2sc2ccccc23)cn1
Result: 65

---

- Tested on: 777334-354-R2-J4-PDC tumor spheroids with HUVEC/MSC, viability
- Procedure Details: Anticancer human tumor 777334-354-R2-J4-PDC cell line growth inhibition [GQUAD];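 further: spheroids exposed to compounds for 7 days before readout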
- Run Conditions: second compound 0.0316 µM; first compound 0.1 µM; stronger effect = lower value
Observable: viability, T/C (%)
Expressed in %, but write only the number.

Q: Record O=c1[nH]cc(F)c(=O)[nH]1 + Cc1[nH]c2ccc(F)cc2c1-c1nc2c3cccnc3c3ncccc3c2[nH]1 : what is its viability, T/C with 777334-354-R2-J4-PDC tumor spheroids with HUVEC/MSC, viability?
Result: 93.3

Q: What about this molecule? C#Cc1c(F)ccc2cc(O)cc(-c3ncc4c(N5CC6CCC(C5)N6)nc(OCC56CCCN5CC(F)C6)nc4c3F)c12 (configuration not stated) + CN(C)c1ccc(Nc2c3ccc(NC(=O)CCN4CCCC4)cc3nc3cc(NC(=O)CCN4CCCC4)ccc23)cc1
Result: 38.9

Q: What about this molecule? C=CCn1c(=O)c2cnc(Nc3ccc(N4CCN(C)CC4)cc3)nc2n1-c1cccc(C(C)(C)O)n1 + Cc1cnc(CNC(=O)c2c(=O)c3ccc(N4CCCN(C)CC4)nc3n3c2sc2ccccc23)cn1
Result: 75.3

Q: What about this molecule? O=c1[nH]cc(F)c(=O)[nH]1 + Cc1cnc(CNC(=O)c2c(=O)c3ccc(N4CCCN(C)CC4)nc3n3c2sc2ccccc23)cn1
Result: 94.8

Q: What about this molecule? COc1ccc([C@@H](O)c2cc(-c3ncnc4cc(N5CCOCC5)ccc34)c(F)cc2Cl)nn1 + CN(C)c1ccc(Nc2c3ccc(NC(=O)CCN4CCCC4)cc3nc3cc(NC(=O)CCN4CCCC4)ccc23)cc1
Result: 88.9

Q: What about this molecule? Cc1cccc(N(C)C(=O)C2C(O)CCN2c2nc(C)cc(C(F)(F)F)c2C#N)c1 (configuration not stated) + CN(C)c1ccc(Nc2c3ccc(NC(=O)CCN4CCCC4)cc3nc3cc(NC(=O)CCN4CCCC4)ccc23)cc1
Result: 87.3

Q: What about this molecule? CCCS(=O)(=O)Nc1ccc(F)c(C(=O)c2c[nH]c3ncc(-c4ccc(Cl)cc4)cc23)c1F + Cc1cnc(CNC(=O)c2c(=O)c3ccc(N4CCCN(C)CC4)nc3n3c2sc2ccccc23)cn1
Result: 89.1

---

- Test system: 777334-354-R2-J4-PDC tumor spheroids with HUVEC/MSC, viability
- Procedure Details: Anticancer human tumor 777334-354-R2-J4-PDC cell line growth inhibition [GQUAD];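 further: spheroids exposed to compounds for 7 days before readout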
- Run Conditions: second compound 0.1 µM; first compound 1 µM; stronger effect = lower value
For each of the compounds below, state its viability, T/C.

Q: What measured viability, T/C goes with COc1cc(C2c3cc4c(cc3C(OC3OC5COC(C)OC5C(O)C3O)C3COC(=O)C23)OCO4)cc(OC)c1O (stereo not given) + CN(C)c1ccc(Nc2c3ccc(NC(=O)CCN4CCCC4)cc3nc3cc(NC(=O)CCN4CCCC4)ccc23)cc1 ?
Result: 79%

Q: What about this compound? CC1COCCN1c1cc(C2(S(C)(=N)=O)CC2)nc(-c2ccnc3[nH]ccc23)n1 (stereo not given) + Cc1[nH]c2ccc(F)cc2c1-c1nc2c3cccnc3c3ncccc3c2[nH]1
Result: 85.8%

Q: What about this compound? CC1COCCN1c1cc(C2(O)CC3CCC(C2)O3)c2cnn(-c3ccn[nH]3)c2n1 (stereo not given) + Cc1cnc(CNC(=O)c2c(=O)c3ccc(N4CCCN(C)CC4)nc3n3c2sc2ccccc23)cn1
Result: 34.8%

Q: What about this compound? C#Cc1c(F)ccc2cc(O)cc(-c3ncc4c(N5CC6CCC(C5)N6)nc(OCC56CCCN5CC(F)C6)nc4c3F)c12 (stereo not given) + CN(C)c1ccc(Nc2c3ccc(NC(=O)CCN4CCCC4)cc3nc3cc(NC(=O)CCN4CCCC4)ccc23)cc1
Result: 28.4%

Q: What about this compound? C=CC(=O)N1CCN(c2nc(=O)n(-c3c(C)ccnc3C(C)C)c3nc(-c4c(O)cccc4F)c(F)cc23)C(C)C1 (stereo not given) + Cc1[nH]c2ccc(F)cc2c1-c1nc2c3cccnc3c3ncccc3c2[nH]1
Result: 91.3%

---

For each of the compounds below, state its IC50.
- Test system: 777334-354-R2-J4-PDC tumor spheroids with HUVEC/MSC, viability
- Procedure Details: Anticancer human tumor 777334-354-R2-J4-PDC cell line growth inhibition [GQUAD];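 further: spheroids exposed to compounds for 7 days before readout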
- Run Conditions: curve of first compound; second compound 1 µM

Q: What measured IC50 goes with O=C(c1cc(Cc2n[nH]c(=O)c3ccccc23)ccc1F)N1CCN(C(=O)C2CC2)CC1 + CN(C)c1ccc(Nc2c3ccc(NC(=O)CCN4CCCC4)cc3nc3cc(NC(=O)CCN4CCCC4)ccc23)cc1 ?
Result: > 10 µM

Q: What about this compound? COc1ncnc(C2CC2)c1-c1ncc2cnn(Cc3ccc(-c4nc(C(F)(F)F)cn4C(C)C)cc3)c2n1 + Cc1cnc(CNC(=O)c2c(=O)c3ccc(N4CCCN(C)CC4)nc3n3c2sc2ccccc23)cn1
Result: > 10 µM

Q: What about this compound? C=CC(=O)N1CCN(c2nc(=O)n(-c3c(C)ccnc3C(C)C)c3nc(-c4c(O)cccc4F)c(F)cc23)C(C)C1 (centres undefined) + Cc1cnc(CNC(=O)c2c(=O)c3ccc(N4CCCN(C)CC4)nc3n3c2sc2ccccc23)cn1
Result: > 10 µM

Q: What about this compound? Cn1ncnc1[C@H]1c2n[nH]c(=O)c3cc(F)cc(c23)N[C@@H]1c1ccc(F)cc1 + Cc1cnc(CNC(=O)c2c(=O)c3ccc(N4CCCN(C)CC4)nc3n3c2sc2ccccc23)cn1
Result: > 0.316 µM

---

- Test system: 777334-354-R2-J4-PDC tumor spheroids with HUVEC/MSC, viability
- Procedure Details: Anticancer human tumor 777334-354-R2-J4-PDC cell line growth inhibition [GQUAD];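 further: spheroids exposed to compounds for 7 days before readout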
- Run Conditions: curve of first compound; second compound 1 µM
- From the text: DNA G-quadruplex Stabilizer Agents in Combinations in Complex Spheroids A high-throughput screen of multi-cell type tumor spheroids was designed to identify active combinations of DNA G-quadruplex stabilizer agents and targeted small molecules. […] Compounds. […] If the clinical Cmax for an agent had not been determined, the highest concentration tested was 10 microM. […]
Observable: IC50

Q: What measured IC50 goes with COc1ncnc(C2CC2)c1-c1ncc2cnn(Cc3ccc(-c4nc(C(F)(F)F)cn4C(C)C)cc3)c2n1 + Cc1[nH]c2ccc(F)cc2c1-c1nc2c3cccnc3c3ncccc3c2[nH]1 ?
Result: > 10 µM

Q: What about this compound? COc1ncnc(C2CC2)c1-c1ncc2cnn(Cc3ccc(-c4nc(C(F)(F)F)cn4C(C)C)cc3)c2n1 + CN(C)c1ccc(Nc2c3ccc(NC(=O)CCN4CCCC4)cc3nc3cc(NC(=O)CCN4CCCC4)ccc23)cc1
Result: > 10 µM

Q: What about this compound? Cn1ncnc1[C@H]1c2n[nH]c(=O)c3cc(F)cc(c23)N[C@@H]1c1ccc(F)cc1 + CN(C)c1ccc(Nc2c3ccc(NC(=O)CCN4CCCC4)cc3nc3cc(NC(=O)CCN4CCCC4)ccc23)cc1
Result: > 0.316 µM

Q: What about this compound? C#Cc1c(F)ccc2cc(O)cc(-c3ncc4c(N5CC6CCC(C5)N6)nc(OCC56CCCN5CC(F)C6)nc4c3F)c12 (stereo not given) + Cc1cnc(CNC(=O)c2c(=O)c3ccc(N4CCCN(C)CC4)nc3n3c2sc2ccccc23)cn1
Result: < 0.0316 µM

Q: What about this compound? CC(C)n1c(=O)n(C)c2cnc3cc(F)c(-c4ccc(OCCCN5CCCCC5)nc4)cc3c21 + Cc1cnc(CNC(=O)c2c(=O)c3ccc(N4CCCN(C)CC4)nc3n3c2sc2ccccc23)cn1
Result: > 10 µM
